For each entry below, report its koff value.
Biological target: T1, recombinant human 4R0N tau (human, UniProt P10636 2-758)
T1 construct: also called recombinant 4R0N human tau; P10636-6
T1 sequence (P10636 other isoform, or with tags, fused parts or gaps limits assumed): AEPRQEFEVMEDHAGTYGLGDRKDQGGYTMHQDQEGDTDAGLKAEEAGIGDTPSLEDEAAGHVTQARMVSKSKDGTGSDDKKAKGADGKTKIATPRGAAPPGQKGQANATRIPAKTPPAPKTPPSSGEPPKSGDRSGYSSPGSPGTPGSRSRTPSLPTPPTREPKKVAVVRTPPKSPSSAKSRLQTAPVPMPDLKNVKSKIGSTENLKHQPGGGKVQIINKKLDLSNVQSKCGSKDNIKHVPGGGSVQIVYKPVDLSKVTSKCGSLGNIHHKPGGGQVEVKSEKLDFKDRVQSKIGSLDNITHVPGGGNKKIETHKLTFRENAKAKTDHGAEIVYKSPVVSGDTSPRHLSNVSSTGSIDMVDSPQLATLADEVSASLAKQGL
Test: SPR Biacore T200; antibody captured by anti-human Fc; tau as analyte; global 1:1 fit
One number for each entry, in s⁻¹.

{"binder": "hu9F5VHv9/hu9F5VLv8_DIM25 (antibody, V domains shown) VH: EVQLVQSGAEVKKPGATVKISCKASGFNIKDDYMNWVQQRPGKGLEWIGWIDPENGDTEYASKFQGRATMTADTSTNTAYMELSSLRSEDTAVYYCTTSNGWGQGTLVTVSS VL: DIQMTQSPFSLPVTPGESASISCRSSKSLGHSNGITYLYWYIQKPGQSPQLLIYQESNRASGVPNRFSSSGSGTDFTLKISRVEAEDVGVYYCAQNGELPLTFGQGTKLEIK", "measurement.units": "s⁻¹", "koff": 0.0409}
{"binder": "hu9F5VHv9/hu9F5VLv8_DIM24 (antibody, V domains shown) VH: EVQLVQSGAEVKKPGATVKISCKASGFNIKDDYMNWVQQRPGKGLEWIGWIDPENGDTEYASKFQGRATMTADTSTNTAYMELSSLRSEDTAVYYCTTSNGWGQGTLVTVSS VL: DIQMTQSPFSLPVTPGESASISCRSSKSLGHSNGITYLYWYIQKPGQSPQLLIYQESNRASGVPNRFSSSGSGTDFTLKISRVEAEDVGVYYCAQNIELPLTFGQGTKLEIK", "measurement.units": "s⁻¹", "koff": 0.000993}
{"binder": "hu9F5VHv9/hu9F5VLv8_DIM2 (antibody, V domains shown) VH: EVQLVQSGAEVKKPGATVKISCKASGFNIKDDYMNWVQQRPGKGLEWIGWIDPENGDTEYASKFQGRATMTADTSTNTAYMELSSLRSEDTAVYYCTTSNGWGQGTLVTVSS VL: DIQMTQSPFSLPVTPGESASISCRSSKSLSHSNGITYLYWYQQKPGQSPQLLIYQGSNRASGVPNRFSSSGSGTDFTLKISRVEAEDVGVYYCAQNIELPLTFGQGTKLEIK", "measurement.units": "s⁻¹", "koff": 0.000586}
{"binder": "hu9F5VHv9/hu9F5VLv8_DIM20 (antibody, V domains shown) VH: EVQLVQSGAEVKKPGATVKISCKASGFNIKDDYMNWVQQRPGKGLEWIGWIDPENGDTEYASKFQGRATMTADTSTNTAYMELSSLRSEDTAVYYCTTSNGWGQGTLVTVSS VL: DIQMTQSPFSLPVTPGESASISCRSSKSLSHSNGITYLYWYQQKPGQSPQLLIYQISNGASGVPNRFSSSGSGTDFTLKISRVEAEDVGVYYCAQNIELPLTFGQGTKLEIK", "measurement.units": "s⁻¹", "koff": 0.0694}
{"binder": "hu9F5VHv10/hu9F5VLv9_DIM13 (antibody, V domains shown) VH: EVQLVQSGAEVKKPGATVKISCKASGFNIKDDYMNWVKQRPEKGLEWIGWIDPENGDTEYASKFQGRATMTADTSTNTAYMELSSLRSEDTAVYYCTTSNGWGQGTLVTVSS VL: DIQMTQSPFSLPVTPGESASISCRSSKSLGHSNGITYLYWYGQKPGQSPQLLIYQGSNRASGVPDRFSSSGSGTDFTLKISRVEAEDVGVYYCAQNLELPLTFGQGTKLEIK", "measurement.units": "s⁻¹", "koff": 0.00116}

Could you report koff for every entry in the following list?
1. hu9F5VHv9/hu9F5VLv8_DIM27 (antibody, V domains shown) VH: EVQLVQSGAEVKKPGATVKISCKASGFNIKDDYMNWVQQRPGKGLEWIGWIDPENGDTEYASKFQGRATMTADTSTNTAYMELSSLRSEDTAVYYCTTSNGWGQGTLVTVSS VL: DIQMTQSPFSLPVTPGESASISCRSSKSLLHSNGITYLYWYQQKPGQSPQLLIYQGSNRASGVPNRFSSSGSGTDFTLKISRVEAEDVGVYYCAQNIELPLTFGQGTKLEIK
2. hu9F5VHv9/hu9F5VLv8_DIM22 (antibody, V domains shown) VH: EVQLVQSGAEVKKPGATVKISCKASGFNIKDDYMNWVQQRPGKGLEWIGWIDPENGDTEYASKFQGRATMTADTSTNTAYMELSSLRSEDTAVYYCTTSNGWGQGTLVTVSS VL: DIQMTQSPFSLPVTPGESASISCRSSKSLSHSNGITYLYWYQQKPGQSPQLLIYQESNRASGVPNRFSSSGSGTDFTLKISRVEAEDVGVYYCAQNIELPLTFGQGTKLEIK
3. hu9F5VHv9/hu9F5VLv8_DIM17 (antibody, V domains shown) VH: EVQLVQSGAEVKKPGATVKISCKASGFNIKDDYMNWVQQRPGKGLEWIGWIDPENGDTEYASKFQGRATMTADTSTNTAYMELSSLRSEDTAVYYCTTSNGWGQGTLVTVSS VL: DIQMTQSPFSLPVTPGESASISCRSSKSLSHSNGITYLYWYGQKPGQSPQLLIYQGSNTASGVPNRFSSSGSGTDFTLKISRVEAEDVGVYYCAQNIELPLTFGQGTKLEIK
4. hu9F5VHv9/hu9F5VLv8_DIM9 (antibody, V domains shown) VH: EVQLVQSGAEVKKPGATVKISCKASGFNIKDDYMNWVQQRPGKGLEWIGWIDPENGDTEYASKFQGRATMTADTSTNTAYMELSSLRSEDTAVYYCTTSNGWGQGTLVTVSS VL: DIQMTQSPFSLPVTPGESASISCRSSKSLGHSNGITYLYWYQQKPGQSPQLLIYQKSNGASGVPNRFSSSGSGTDFTLKISRVEAEDVGVYYCAQNIELPLTFGQGTKLEIK
5. hu9F5VHv9/hu9F5VLv8_DIM6 (antibody, V domains shown) VH: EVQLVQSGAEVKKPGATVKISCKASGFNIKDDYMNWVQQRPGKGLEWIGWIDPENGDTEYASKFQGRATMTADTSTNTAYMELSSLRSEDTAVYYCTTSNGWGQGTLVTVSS VL: DIQMTQSPFSLPVTPGESASISCRSSKSLDHSNGITYLYWYQQKPGQSPQLLIYQGSNRASGVPNRFSSSGSGTDFTLKISRVEAEDVGVYYCAQNIELPLTFGQGTKLEIK

[0.000385, 0.000878, 0.000326, 0.0116, 0.000272]
